Taken from the OligoGym collection.

Biological target: MAP3K5
Conditions: ASO; also: test concentration or dose not given here
These antisense oligonucleotides have a phosphorothioate backbone; sugars and methylation of C are not fully specified.
Items are presented alongside their recorded remaining target (mRNA or protein) (fraction of control).
Answer as a number with no unit attached.

IN: Requested read-out: remaining target (mRNA or protein) (fraction of control). Entry: TGTCAACCCCTTCATGAAGC
OUT: 0.19

IN: Entry CTCCCAGTTCATAAAATGGG please
OUT: 0.85

IN: One more sequence: CGTGCTCATCTCTCCGGGCC
OUT: 0.12

IN: Next up: ATGTCATTGAGTATAGATTC
OUT: 0.69

IN: Same again, this time with CAGCTCAAGGGCGCCGCGCT
OUT: 0.59

IN: Proceed to CCAGAAGCTGCCCGGCGGCG
OUT: 0.56

IN: What do we get for TGCTCATCTCTCCGGGCCGG ?
OUT: 0.4

IN: Another: TTCGTCCGCCTCCGTGCTCA
OUT: 0.18

IN: Now consider CATCAACAAGCAAGTCGTTA .
OUT: 0.37

IN: And the next one, CTCATCTCTCCGGGCCGGGC ?
OUT: 0.3

IN: Check ACCGGCTTATAGTGTCTTCA too.
OUT: 0.73

IN: // same read-out, input: GGCCTCGCTCTCGGCCACCA
OUT: 0.03

IN: Lookup GGATGGTGCAGAAGCCCGAG
OUT: 0.5

IN: Check CCTCCGTGCTCATCTCTCCG too.
OUT: 0.09

---

// reported remaining target (mRNA or protein) (fraction of control) per item
Molecular target: IGF2
Details: ASO
These antisense oligonucleotides have a phosphorothioate backbone; sugars and methylation of C are not fully specified.

Solved entries (count: 6):
CGATCTTGTGCGGTGTCCTG = 0.86
TCACCATGGCCAGCCCCAGC = 0.81
CGCGCATGTCATCGGGAATG = 0.31
CCCACCTCCATCACCATGGC = 0.52
TACAAGATAGTACAGTACGC = 0.33
GGAACTCAGTGGAACTCAGG = 0.11

IN: // remaining target (mRNA or protein) (fraction of control) lookup, key: ACCGCGCTTTCCTCCCGCCG
OUT: 0.53

IN: Field entry: AGCCCCAGCGACCCCAGCGT
OUT: ≥ 1

---

Biological target: MAP4K4
Details: ASO
These antisense oligonucleotides have a phosphorothioate backbone; sugars and methylation of C are not fully specified.
Lab note: cut-off is 0.5. Strictly less in remaining target (mRNA or protein) (fraction of control) is Criterion met. Exactly 0.5 or more is Criterion not met.

CCTTGATATCCCGGTGAATC = Criterion met
GGACTCGTCAGCCCCTTCCT = Criterion met
CACCACAGATGTCACTGTTG = Criterion met
AAACAAAATGGGACCCCTTA = Criterion not met
ATGTCGACCCTTATAGACTT = Criterion met

IN: Would you kindly verify if remaining target (mRNA or protein) (fraction of control) of CTCTGCAGGGCGGGATGCAC is strictly less than 0.5?
OUT: Criterion not met

IN: Follow-up item: TCCAAATGACTTAAAGGCCA
OUT: Criterion not met

IN: Can you handle GCCGTACATCTTCCACTGCT next?
OUT: Criterion met

IN: One more sequence: CCTCATCTTCATAGCACACC
OUT: Criterion not met

IN: Same question for CCTCTCCTCTTCTTCTTTGC please.
OUT: Criterion not met

IN: Check ACTTCCTCCTCTTCTTCCTC too.
OUT: Criterion met

IN: And then AGGTGGCATCTGGGTTCTCA , what is it?
OUT: Criterion met

---

Target: CD44
Details: ASO
These antisense oligonucleotides have a phosphorothioate backbone; sugars and methylation of C are not fully specified.
reported-endpoint: remaining target (mRNA or protein) (fraction of control)

Solved cases (2 shown):
TCATGTCCACATTCTGCA = 0.81
GTGTTGTTTGCTGCACAG = ≥ 1

// switching to the query sequence
IN: I'd like to know its remaining target (mRNA or protein) (fraction of control). The sequence in question is CAGGGATTAGGCTATGGA
OUT: ≥ 1

---

The following sequences are listed with their measured remaining target (mRNA or protein) (fraction of control) values.
Target: NSMAF
Conditions: ASO
These antisense oligonucleotides have a phosphorothioate backbone; sugars and methylation of C are not fully specified.
Output: the number by itself.

TGTCAGTAGTCTCTCCAG = 0.25
GTCTCCACAACATCTTCC = 0.86
AATCTCTCCTTGGAGTAG = 0.61

IN: Please give the measured remaining target (mRNA or protein) (fraction of control) for this sequence: TGGAAACACAGGGTACTG
OUT: 0.37

IN: Next record, please: CTGCAGCATGTAGCTCTC
OUT: 0.83

IN: And GTGATTCCAGTAACTGCT ?
OUT: 0.36

IN: Could you do the same for TGTGTGGCCCTGTATTCT , please?
OUT: 0.38

IN: Try CTCTTCTGGAGAAAGTCC next.
OUT: 0.67

IN: Do the same for CATTTTATCTGCCCTAAG please
OUT: 0.56

---

Biological target: SMAD7
Details: ASO
These antisense oligonucleotides have a phosphorothioate backbone; sugars and methylation of C are not fully specified.
reported-endpoint: remaining target (mRNA or protein) (fraction of control)

Below, 6 sequences whose answers are already recorded.
AGTCTGCAGTTGGTTTGA = ≥ 1
AAAACAGAACACAAACGA = ≥ 1
GAGATCCAGGAGCAGATG = 0.78
CGAACATGACCTCCGCAC = 0.52
CTGCCCCTTCTTCCAAAA = 0.68
TGCATGAAAAGCAAGCAC = 0.91

IN: Enter reported remaining target (mRNA or protein) (fraction of control) observed with SMAD7 for AGCCTCTTGACTTCCGAG
OUT: ≥ 1

IN: // same read-out, input: GCCGATTTTGCTCCGCAC
OUT: 0.78

IN: Similarly, AGCACCGAGTGCGTGAGC ?
OUT: 0.72

IN: Next entry: GTTGTCTCCCCATCTGCC
OUT: ≥ 1

IN: // next record AGAAGTTGGGAATCTGAA
OUT: ≥ 1

IN: Entry to check: TGCTTGGATTTCTGCTTC
OUT: 0.89

---

Target: GNAI2
Conditions: ASO
These antisense oligonucleotides have a phosphorothioate backbone; sugars and methylation of C are not fully specified.
Quick reference: remaining target (mRNA or protein) (fraction of control) of the listed items.
Field format: numeric only.

CGTTCTTGGTGTCGGTGG = 0.39
AACATTTGGACTTGGCTG = 0.76
CTTGAAGGTGAAGTGTGT = 0.74
ACATCTTGAAGTGTAGGT = 0.78
AGGCTCCCTGTAAACATT = 0.77

IN: What value of remaining target (mRNA or protein) (fraction of control) has been recorded for this entry: CCCCTCCCTCATACACAG
OUT: 0.62

IN: What do we get for GCGAACCCCTCCCCTACG ?
OUT: 0.71

IN: What do you have for CCCTCCAGACGCAGCCTT ?
OUT: 0.47

IN: Can you check AGGTCGTTCAGGTAGTAG next?
OUT: 0.64

IN: Also check GGAAAGAGGAGAAAAGCG
OUT: 0.65

IN: Another sequence: ATGGTGCTCTTCCCTGAC
OUT: 0.52

IN: Another: GGCCTGTGCGAACCCCTC
OUT: 0.96

IN: Input CAACAGCAGCAACTTCAC
OUT: 0.89

IN: Also check TTCAGGTCCTCAAACTTA
OUT: 0.38

IN: Follow-up item: GGCAGGCTTCAAACAGGG
OUT: 0.52

---

Details: ASO
These antisense oligonucleotides have a phosphorothioate backbone; sugars and methylation of C are not fully specified.
reported-endpoint: remaining target (mRNA or protein) (fraction of control)
Just the number, please.

Before answering, review these 3 worked examples.
GGAGTGCATAAGAGGCCACA = 0.56
CATAAGAGGCCACAGCAGGC = 0.41
GGGGTGGTGGAGTGCATAAG = 0.9

IN: Which remaining target (mRNA or protein) (fraction of control) is reported for this sequence? TTCGCCGCACCGACTCGC
OUT: 0.9

IN: Now this one: GACGTGCCTTTCTGCTAC
OUT: 0.72

IN: Now this one: GATGACGGATGTGCTTTT
OUT: 0.74

IN: Now the sequence GTTGATCTCGTCCAGGTA
OUT: 0.28

IN: Note, next up: TCAACTTCTTTTGCCGAA
OUT: 0.62

IN: What do you get for TTGCTCTCGGGCCTGCTG ?
OUT: 0.21

IN: And ATTCTCCCAAAGCGTCCC ?
OUT: 0.81

IN: Please answer likewise for TTATTCATACCGTTGTTG
OUT: 0.96
